Numbers sourced from paper PMC6691788.

System: NCI-H226
ASSAY METHOD TEXT: NCI 60 cell panel SRB screen
Assay type: cell-based
RUN PARAMETERS: Homo sapiens; NCI-H226, 5 log dose, 48 h; read-out: LC50 (the source's name)
QUANTITY KIND: CC50

{"COMPOUND": "O=C(Nc1ccccc1)Nc1ccc(Oc2nnc(Cl)c3ccccc23)cc1 [Compound 13a]", "QUANTITY KIND": "CC50", "RESULT VALUE": "> 25 µM"}
{"COMPOUND": "COc1cccc(NCc2nnc(Nc3ccc(Cl)cc3)c3ccccc23)c1 [Compound 16d]", "QUANTITY KIND": "CC50", "RESULT VALUE": "> 25 µM"}
{"COMPOUND": "O=C(Nc1ccc(Cl)cc1)Nc1ccc(Oc2nncc3ccccc23)cc1 [Compound 7b]", "QUANTITY KIND": "CC50", "RESULT VALUE": "> 100 µM"}
{"COMPOUND": "Clc1ccc(Nc2nnc(CNc3ccccc3)c3ccccc23)cc1 [Compound 16a]", "QUANTITY KIND": "CC50", "RESULT VALUE": "> 25 µM"}
